Exercise: state measured GI50 for each of the compounds provided.
test system: TK-10 renal; assay: NCI tumour cell line growth inhibition, 48 h

The following compounds have reported results that may help.
[[record]]
compound = "COc1cccc(-c2nn(C)c3sc(C(=O)NCCN4CCN(c5ccccc5F)CC4)cc23)c1"
measured = "65.4 µM"

[[record]]
compound = "COc1ccc(-c2nn(C(=O)c3cc(OC)c(OC)c(OC)c3)c3cc(N)ccc23)cc1"
measured = "6.09 µM"

[[record]]
compound = "CC/C(=C(/c1ccc(Cl)cc1)c1ccc(OCCCN(C)C)cc1)c1ccc(OC)cc1"
measured = "6.23 µM"

[[record]]
compound = "Nc1c(C(=O)Nc2cccc3ccccc23)sc2nc3c(cc12)CCCCCC3"
measured = "> 50 µM"

[[record]]
compound = "O=c1c(Br)ccc(Br)cc1Br"
measured = "1.55 µM"


Give GI50 for each of the items listed below.
1. COc1cc(/C=C/C(=O)c2ccc(SC)cc2)cc(OC)c1OC
2. COc1cc(/C=C2\CCCC3=C2N=C2SC=NN2C3c2cc(OC)c(OC)c(OC)c2)cc(OC)c1OC (stereo not given)
3. Nc1nc(-c2ccccc2Cl)cc(-c2ccc(Cl)cc2Cl)n1
4. COc1cc(-c2cc(C(=O)N3CCN(C(=O)c4ccccc4NCc4cccs4)CC3)nc3cc(-c4ccccc4)nn23)cc(OC)c1OC
5. CO[C@]12C=C/C(=C(/C(=O)OCc3cccnc3)C(=O)CCCCCCCC[C@]3(OC)C=C/C(=C(/C(=O)OCc4cccnc4)C(=O)CCCCCCCC1)O3)O2

Response:
1. 18 µM
2. 4.19 µM
3. 9.46 µM
4. 20.6 µM
5. 0.583 µM

----------
test system: SK-MEL-2 melanoma; test: NCI tumour cell line growth inhibition, 48 h
metric: GI50

Worked cases, GI50 given:
[[record]]
molecule = "O=[N+]([O-])c1ccc(N/N=C\\c2ccc(O)cc2O)nc1"
studytarget = "SK-MEL-2 melanoma"
measured = "5210 nM"

[[record]]
molecule = "CC/C(=C(/c1ccc(Cl)cc1)c1ccc(OCCCN(C)C)cc1)c1ccc(OC)cc1"
studytarget = "SK-MEL-2 melanoma"
measured = "8010 nM"

[[record]]
molecule = "O=C1/C=C/[C@@H](O)[C@@H]2C[C@@H](O)C[C@H]2/C=C/CCCCO1"
studytarget = "SK-MEL-2 melanoma"
measured = "257 nM"

[[record]]
molecule = "Nc1c(C(=O)Nc2cccc3ccccc23)sc2nc3c(cc12)CCCCCC3"
studytarget = "SK-MEL-2 melanoma"
measured = "17000 nM"

[[record]]
molecule = "O=c1c(Br)ccc(Br)cc1Br"
studytarget = "SK-MEL-2 melanoma"
measured = "2390 nM"


The following molecules each have a reported value; give each one's GI50.
1. COc1cc(-c2nc3cc(Cl)c(Cl)cc3[nH]2)ccc1OCC(=O)N=Nc1c(O)[nH]c2ccccc12
2. Nc1ncnc2c1c(-c1ccc(Oc3ccccc3)cc1)nn2C[C@H]1SSC[C@H]1O
3. O=C(Nc1ccc(-n2cc(-c3ccncc3)c(-c3ccc(Cl)c(O)c3)n2)cc1)c1ccc(Cl)c(C(F)(F)F)c1
4. CCc1cc(Cc2cc(CC)cc(C(C)(C)C)c2O)c(O)c(C(C)(C)C)c1
5. COc1ccc(-c2nn(C(=O)c3cc(OC)c(OC)c(OC)c3)c3cc(N)ccc23)cc1

Response:
1: 1330 nM; 2: 160 nM; 3: 1610 nM; 4: 2630 nM; 5: 2550 nM

Request: May I ask what GI50 has been recorded for COc1ccc(/C=N/C2=C(C#N)C(c3ccccc3)c3ccc4ccccc4c3O2)cc1 (stereo unspecified) ?
Response: 545 nM
